Hello, the source for this data is ChEMBL document CHEMBL4840351, in case you need it.

assay: Cmax in Sprague-Dawley rat at 5 mg/kg, po measured upto 24 hrs by LC/MS/MS analysis; format: ADME, organism-based; set-up: route oral, dose 5 mg/kg, time <=24; conditions: in vivo
PROPERTY: Cmax (ng/mL)

>>> readout_number("C=CC(=O)N1CCCC[C@H]1c1nc(-c2ccc(C(=O)Nc3cc(C(F)(F)F)ccn3)cc2)c(C(N)=O)n1N")
501

---

molecular target: Epidermal growth factor receptor (Homo sapiens, UniProt P00533)
Sequence (P00533 whole entry): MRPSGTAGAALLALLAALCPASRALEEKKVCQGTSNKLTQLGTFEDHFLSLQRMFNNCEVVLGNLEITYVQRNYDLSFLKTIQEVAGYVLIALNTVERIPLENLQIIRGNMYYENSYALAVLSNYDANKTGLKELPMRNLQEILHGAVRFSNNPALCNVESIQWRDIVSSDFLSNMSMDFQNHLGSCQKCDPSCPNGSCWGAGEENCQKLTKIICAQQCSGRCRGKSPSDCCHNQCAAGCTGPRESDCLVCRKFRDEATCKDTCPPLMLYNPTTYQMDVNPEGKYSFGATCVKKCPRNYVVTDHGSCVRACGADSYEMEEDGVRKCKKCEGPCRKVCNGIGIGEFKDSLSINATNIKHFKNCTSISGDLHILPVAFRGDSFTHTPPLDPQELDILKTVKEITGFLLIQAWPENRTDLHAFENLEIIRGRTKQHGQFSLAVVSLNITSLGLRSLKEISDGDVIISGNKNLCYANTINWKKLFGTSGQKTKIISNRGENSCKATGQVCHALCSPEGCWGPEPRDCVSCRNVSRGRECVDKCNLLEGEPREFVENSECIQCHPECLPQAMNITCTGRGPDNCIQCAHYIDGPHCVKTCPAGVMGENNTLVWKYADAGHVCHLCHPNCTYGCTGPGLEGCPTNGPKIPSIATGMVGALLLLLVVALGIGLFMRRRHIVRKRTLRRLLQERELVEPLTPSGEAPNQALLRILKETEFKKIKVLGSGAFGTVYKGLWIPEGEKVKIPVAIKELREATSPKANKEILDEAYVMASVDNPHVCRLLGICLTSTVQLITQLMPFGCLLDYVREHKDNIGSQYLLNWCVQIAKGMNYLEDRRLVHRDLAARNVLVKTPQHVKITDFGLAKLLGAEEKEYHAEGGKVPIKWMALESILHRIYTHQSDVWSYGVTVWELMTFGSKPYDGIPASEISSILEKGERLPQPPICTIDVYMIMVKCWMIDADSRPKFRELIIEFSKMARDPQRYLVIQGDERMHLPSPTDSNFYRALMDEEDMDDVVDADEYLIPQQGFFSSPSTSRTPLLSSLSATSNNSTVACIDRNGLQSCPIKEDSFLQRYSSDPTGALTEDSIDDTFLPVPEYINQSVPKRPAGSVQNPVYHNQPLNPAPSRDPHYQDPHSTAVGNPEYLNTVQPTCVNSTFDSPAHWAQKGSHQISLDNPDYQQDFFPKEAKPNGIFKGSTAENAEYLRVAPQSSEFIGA
Measured IC50 of individual entries
PROPERTY: IC50 (nM)

>>> readout_number("C=CC(=O)N1CCCC[C@H]1c1nc(-c2ccc(C(=O)Nc3cc(C(F)(F)F)ccn3)cc2)c(C(N)=O)n1N")
433
>>> readout_number("C=CC(=O)N1CCCC[C@H]1c1nc(-c2ccc(C(=O)Nc3cc(-c4ccccc4)ccn3)cc2)c(C(N)=O)n1N")
79.4

---

experiment: Cmax in CB-17 SCID mouse xenografted with human TMD8 cells at 7.5 mg/kg, po bid administered for 21 days; format: ADME, organism-based; set-up: route oral, dose 7.5 mg/kg, time 21 day; conditions: in vivo
PROPERTY: Cmax (ng/mL)

>>> readout_number("C=CC(=O)N1CCCC[C@H]1c1nc(-c2ccc(C(=O)Nc3cc(C(F)(F)F)ccn3)cc2)c(C(N)=O)n1N")
1000

---

experiment: Half life in Sprague-Dawley rat at 5 mg/kg, po measured upto 24 hrs by LC/MS/MS analysis; assay type: ADME, organism-based; conditions: in vivo
PROPERTY: half-life

>>> result("C=CC(=O)N1CCCC[C@H]1c1nc(-c2ccc(C(=O)Nc3cc(C(F)(F)F)ccn3)cc2)c(C(N)=O)n1N")
"1.35 h"
